tested on: T. mentagrophytes; test: penetration test on excised pig skin: growth inhibition in the lowest region of the horny layer; conditions: Table 1; pig skin, 0.3% strength solutions, washed after 2 hours, lowest part of horny layer
recorded-metric: Inhibition (%) in the horny layer

- molecule: "CCCCCCCCCCCc1cc(C)cc(=O)n1O [Comparison 2, reference compound]"
  study-system: "T. mentagrophytes"
  recorded-metric: "Inhibition (%) in the horny layer"
  observed: "9,8%"
- molecule: "Cc1cc(C(C)C)n(O)c(=O)c1 [Comparison 1, reference compound]"
  study-system: "T. mentagrophytes"
  recorded-metric: "Inhibition (%) in the horny layer"
  observed: "35,7%"
- molecule: "Cc1cc(CCc2ccccc2)n(O)c(=O)c1"
  study-system: "T. mentagrophytes"
  recorded-metric: "Inhibition (%) in the horny layer"
  observed: "81,9%"
